Data provenance: PubChem BioAssay

- Test system: R275C/beta1
- MEASUREMENT PROTOCOL: modulators of BK channel variants, profiling panel, selectivity assay, cell-based, U2OS BacMam, thallium flux, beta subunits (AID 1259406);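 also: initial slope of Thallos dye fluorescence rise after thallium is added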
- SETTINGS: at 30 µM
The label depends only on log fold change Tl+ flux: true if it is at least 0.01, false if it is smaller.

Kindly determine if log fold change Tl+ flux recorded for CN1CCN(S(=O)(=O)c2ccc(CNC(=O)c3ccccc3)s2)CC1 is above or exactly 0.01.
true

Kindly determine if log fold change Tl+ flux recorded for COc1cccc(C(=O)Nc2cc(F)c(Br)cc2F)c1 is above or exactly 0.01.
false

Kindly determine if log fold change Tl+ flux recorded for CC(Cc1ccc(O)c(O)c1)(NN)C(=O)O (configuration not stated) is above or exactly 0.01.
true

Kindly determine if log fold change Tl+ flux recorded for Cc1ccc(C(=O)CC(=CC(=C(C#N)c2ccc([N+](=O)[O-])cc2)c2ccc(C)cc2)c2ccccc2)cc1 is above or exactly 0.01.
false

Kindly determine if log fold change Tl+ flux recorded for CCN(CC)CC#CCOC(=O)C(O)(c1ccccc1)C1CCCCC1 (configuration not stated) is above or exactly 0.01.
false

Kindly determine if log fold change Tl+ flux recorded for FC(F)(F)c1ccc(-c2csc(C3(c4ccc(Cl)cc4Cl)CC3)n2)cc1 is above or exactly 0.01.
true

Kindly determine if log fold change Tl+ flux recorded for COc1ccccc1NC(=S)NNC(=O)CSc1ccccc1[N+](=O)[O-] is above or exactly 0.01.
true

Kindly determine if log fold change Tl+ flux recorded for CC(COc1ccccc1Cc1ccccc1)N1CCCCC1 (configuration not stated) is above or exactly 0.01.
true

Kindly determine if log fold change Tl+ flux recorded for CCSc1ccc(-c2noc(C(C)(C)C)n2)cn1 is above or exactly 0.01.
true

Kindly determine if log fold change Tl+ flux recorded for C1=CC=CC(C2C=CC=CC=C2)C=C1 is above or exactly 0.01.
false

Kindly determine if log fold change Tl+ flux recorded for O=C1NC2CC2N1C(=O)OCc1ccccc1 (configuration not stated) is above or exactly 0.01.
false

Kindly determine if log fold change Tl+ flux recorded for CC(=NO)c1ccc2c(c1)C(C)(C)CCC2(C)C is above or exactly 0.01.
true
